biological target: human PAH with the R408W mutation (Homo sapiens, UniProt P00439, R408W); construct: expressed in transfected cells; assay: Cell Based Phenylalanine Flux Assay; conditions: A375 cells expressing human PAH R408W; 24 hrs compound incubation; 13C-Tyrosine by LC-MS; average where tested multiple times; read-out: AC50;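 note: after compound treatment, cells received sepiapterin plus isotope-labelled Phenylalanine for 4 hours, then labelled Tyrosine in the medium was quantified, 10-point 2-fold dilution series run in duplicate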
Sequence (P00439 whole entry R408W): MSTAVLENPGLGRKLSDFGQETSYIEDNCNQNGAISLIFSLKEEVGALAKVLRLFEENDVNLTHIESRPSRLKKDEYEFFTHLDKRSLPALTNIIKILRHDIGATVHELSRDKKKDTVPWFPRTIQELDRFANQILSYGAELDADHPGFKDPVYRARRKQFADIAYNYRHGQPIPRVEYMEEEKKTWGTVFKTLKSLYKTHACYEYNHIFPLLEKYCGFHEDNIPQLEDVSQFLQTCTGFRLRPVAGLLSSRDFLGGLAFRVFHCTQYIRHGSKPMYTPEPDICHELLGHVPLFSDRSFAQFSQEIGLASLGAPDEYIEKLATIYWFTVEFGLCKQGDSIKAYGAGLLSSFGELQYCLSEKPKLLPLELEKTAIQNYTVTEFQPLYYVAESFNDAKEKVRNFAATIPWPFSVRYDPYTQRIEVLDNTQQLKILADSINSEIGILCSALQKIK
MEASUREMENT TYPE: AC50

Quick check: AC50 of CN(C)c1ccc2c(C(=O)N3CCc4[nH]cnc4[C@H]3c3cc4cccc(Cl)n4n3)cnn2c1 ?
1000 to 5000 nM

What does the data say about its AC50? Entry: c1ccc(N2CCc3[nH]cnc3[C@H]2c2cc3ccccn3n2)cc1
< 500 nM

I have this compound here, Cc1c[nH]nc1-c1nnc(C(=O)N2CCc3[nH]cnc3[C@@H]2c2cc3c(C)cccn3n2)o1 , and I need its recorded AC50.
> 5000 nM

Item under review: O=C(c1cnc(-c2cnccn2)o1)N1CCc2[nH]cnc2[C@H]1c1cc2c(C(F)(F)F)cccn2n1 . Reported AC50?
500 to 1000 nM
